- Test system: OVCAR-3
- test: NCI tumour cell line growth inhibition, 48 h
Calls of active or inactive are those of the source. No stated cut-off is given here; in the data, active = GI50 up to about 1.1 µM and inactive = higher.
Choose one outcome from this list and give only that: true = active, false = inactive

Example entries and their recorded answers appear below.
C=CCOC(=O)NC1C(OC(C)[C@@H](NC(=O)OCc2ccccc2)C(=O)OC(C)(C)C)OC(COC(C)=O)C(OC(C)=O)C1OC(C)=O (stereo not given in full)    false
Cc1ccc(S(=O)(=O)Nc2cc(O)nc3c2CCC3)cc1    false
CN(C)C(=O)C(NCCO)c1ccccc1 (stereo not given)    false

State the result this test recorded for C=CCn1c(=O)c2ccccc2[n+]2c(C)c(C(=O)OCC)sc12 .
false

Record request — test call for Cc1ccc(C2CC(c3ccco3)=NN2c2ccccc2)o1 (stereo not given)
false

Identify the outcome logged in this assay for the compound shown: O=C(O)c1cc(=O)c2[nH]c3ccccc3c2s1
false

GET /call?item= Cc1ccc(NC(=O)/C(=N\NC(N)=S)C(C#N)c2ccccc2C)cc1C (stereo not given) returns the recorded outcome of this test.
false

What classification did CC12CCC(C(=O)O1)C(C)(C)O2 (stereo not given) end up with in this test?
false

Hi, do you know how COC(=O)CC(SCCO)SCCO came out in this test?
false

What is the recorded call for this compound in the test? CN(C)CC(NC(NCS)C(=O)NCCNc1ccc(NCCNC(=O)C(NCS)NC(CN(C)C)OCCl)c2c1C(=O)c1c(O)ccc(O)c1C2=O)OCCl (stereo not given)
true

Entry O=C(NCCCCCCNC(=O)n1cc(F)c(=O)[nH]c1=O)NCCCOCCOCCOCCOCCOCCOCCOCCOCCOCCOCCOCCOCCOCCOCCOCCOCCOCCOCCOCCOCCOCCCNC(=O)C(O)C(O)C(OC1OC(CO)C(O)C(O)C1O)C(O)CO (stereo not given) : call = ?
false
